Entry source: ChEMBL document CHEMBL3988442

System: Plasmodium falciparum
Assay: Calibr Malaria Delayed Death Assay SOP
Assay type: functional, organism-based
Design: scale not given: in the data most compounds retested in dose-response had high values
Conditions: concentration 4.99e-06 (unit not given; other assays of the set use mol/L)
Among all 38,000 compounds or so, about 1,200 (3.2%) showed an effect of 50% or more. The median lay at about -58%. This excerpt belongs to a sample that is enriched for strong results.
Measured Percent Effect values are reported for all entries that follow.
Give a bare numeral; the unit % is implied.

Past entries and their recorded results:
compound=Cn1cnc(S(=O)(=O)N2CC3(CCN(c4ccccc4)C3)C2)c1.O=C(O)C(F)(F)F readout_number=1.109
compound=CN(C)CCN(Cc1ccc(Cl)cc1)C(=O)c1cnccn1 readout_number=32.67
compound=C[C@@H]1CN(CCC(=O)NCc2ccccc2Cl)C[C@@]1(O)C1CC1 readout_number=46.32

Query: I'd like to know its Percent Effect. The compound in question is COC1CCN(CCNC(=O)NCC(C)c2cccc(C)c2)CC1 (stereo not given)
Reply: 54

Query: Field entry: COC1CCN(CCNC(=O)NC(C)c2cccc(Cl)c2)CC1 (stereo not given)
Reply: 23.1
